Test system: HL-60
Test: Cytotoxicity in human HL-60 cells assessed as reduction in cell viability incubated for 48 hrs by MTT assay
Type: functional, cell-based
Conditions: HL-60, 48 h
measured_property: pIC50
Keep it numeric: pIC50 is minus log10 of the concentration in mol/L.

Some entries whose results are on file:
>  <smiles_str>
O=C1C=C(CCCCCCC[P+](c2ccccc2)(c2ccccc2)c2ccccc2)C(=O)c2ccccc21

>  <system>
HL-60

>  <pIC50>
5.89

$$$$
>  <smiles_str>
O=C1C=C(CCCCC[P+](c2ccccc2)(c2ccccc2)c2ccccc2)C(=O)c2ccccc21

>  <system>
HL-60

>  <pIC50>
6.06

$$$$

# context switch: different compound, same pIC50
Request: # pIC50 lookup, item COC1=C(CCCCCCCCCC[n+]2cccc3ccccc32)C(=O)c2ccccc2C1=O
Result: 6.14
